FYI, the data here is from ChEMBL document CHEMBL1139755.

Test system: Staphylococcus epidermidis
Protocol details: Antibacterial activity against Staphylococcus epidermidis ATCC 155 by broth microdilution method
Type: functional
Reported endpoint: MIC (µg/mL)
Expressed in µg/mL, but write only the number.

Here is how some compounds turned out for MIC.
1) CC(=O)NC[C@H]1CN(c2ccc(N(C)C3CCN(C(=O)/C=C/c4c[nH]c5ccccc45)CC3)c(F)c2)C(=O)O1    4
2) CC(=O)NC[C@H]1CN(c2ccc(N(C)C3CCN(C(=O)/C=C/C4CCCCC4)CC3)c(F)c2)C(=O)O1    8
3) CC(=O)NC[C@H]1CN(c2ccc(N(C)C3CCN(C(=O)/C=C/c4ccc(O)cc4)CC3)c(F)c2)C(=O)O1    8

CC(=O)NC[C@H]1CN(c2ccc(N3CCN(Cc4ccc([N+](=O)[O-])o4)CC3)c(F)c2)C(=O)O1 [RANBEZOLID] yielded MIC of 0.25

// sample `CC(=O)NC[C@H]1CN(c2ccc(N(C)C3CCN(C(=O)/C=C/c4ccccc4)CC3)c(F)c2)C(=O)O1` , its MIC was 4

Note to self: MIC recorded for CC(=O)NC[C@H]1CN(c2ccc(N3CCOCC3)c(F)c2)C(=O)O1 [LINEZOLID] was 1

Consider `CC(=O)NC[C@H]1CN(c2ccc(N(C)C3CCN(C(=O)/C=C/c4ccc([N+](=O)[O-])o4)CC3)c(F)c2)C(=O)O1` . Its measured MIC is 0.25

Entry `CC(=O)NC[C@H]1CN(c2ccc(N(C)C3CCN(C(=O)/C=C/c4ccc([N+](=O)[O-])cc4)CC3)c(F)c2)C(=O)O1` , MIC reported as 8

---

System: Staphylococcus epidermidis
Protocol details: Antibacterial activity against Staphylococcus epidermidis ATCC 12228 by broth microdilution method
Type: functional
In this section, each of the compounds is paired with its reported MIC.

For the compound `CC(=O)NC[C@H]1CN(c2ccc(N(C)C3CCN(C(=O)/C=C/C4CCCCC4)CC3)c(F)c2)C(=O)O1` , the measured MIC on Staphylococcus epidermidis was > 16 µg/mL

Tested on Staphylococcus epidermidis, the item `CC(=O)NC[C@H]1CN(c2ccc(N(C)C3CCN(C(=O)/C=C/c4ccco4)CC3)c(F)c2)C(=O)O1` showed MIC equal to > 16 µg/mL

---

System: Enterococcus faecium
Protocol details: Antibacterial activity against vancomycin-resistant Enterococcus faecium ATCC 700221 by broth microdilution method
Assay type: functional
Reported endpoint: MIC (µg/mL)
Write the number in µg/mL without appending the unit.

The examples below pair each entry with its known result.
1) CC(=O)NC[C@H]1CN(c2ccc(N(C)C3CCN(C(=O)/C=C/c4ccc([N+](=O)[O-])o4)CC3)c(F)c2)C(=O)O1    1
2) CC(=O)NC[C@H]1CN(c2ccc(N(C)C3CCN(C(=O)/C=C/c4ccccc4)CC3)c(F)c2)C(=O)O1    4
3) CC(=O)NC[C@H]1CN(c2ccc(N(C)C3CCN(C(=O)/C=C/c4ccco4)CC3)c(F)c2)C(=O)O1    8

get_value(item= `CC(=O)NC[C@H]1CN(c2ccc(N(C)C3CCN(C(=O)/C=C/c4ccc(O)cc4)CC3)c(F)c2)C(=O)O1` , readout=MIC) returns 8

---

Tested on: Enterococcus faecalis
Protocol details: Antibacterial activity against Enterococcus faecalis ATCC 14506 by broth microdilution method
Assay type: functional
Reported endpoint: MIC

// solved cases for MIC follow
1. CC(=O)NC[C@H]1CN(c2ccc(N(C)C3CCN(C(=O)/C=C/c4ccco4)CC3)c(F)c2)C(=O)O1    > 16 µg/mL
2. CC(=O)NC[C@H]1CN(c2ccc(N(C)C3CCN(C(=O)/C=C/c4ccc5c(c4)OCO5)CC3)c(F)c2)C(=O)O1    > 16 µg/mL
3. CC(=O)NC[C@H]1CN(c2ccc(N(C)C3CCN(C(=O)/C=C/c4ccccc4)CC3)c(F)c2)C(=O)O1    > 16 µg/mL

Now for another entry.
response.value for `CC(=O)NC[C@H]1CN(c2ccc(N(C)C3CCN(C(=O)/C=C/c4ccc([N+](=O)[O-])o4)CC3)c(F)c2)C(=O)O1` (field: MIC) = 4 µg/mL

---

Examples of molecules with documented MIC follow.
Test system: Enterococcus faecium
Protocol details: Antibacterial activity against vancomycin-resistant Enterococcus faecium ATCC 700221 by broth microdilution method
Assay type: functional
API: value field is a number in µg/mL; no unit string.

1. CC(=O)NC[C@H]1CN(c2ccc(N(C)C3CCN(C(=O)/C=C/c4c[nH]c5ccccc45)CC3)c(F)c2)C(=O)O1    8
2. CC(=O)NC[C@H]1CN(c2ccc(N3CCN(Cc4ccc([N+](=O)[O-])o4)CC3)c(F)c2)C(=O)O1    2

Alright, here's another molecule for you.
For record `CC(=O)NC[C@H]1CN(c2ccc(N(C)C3CCN(C(=O)/C=C/C4CCCCC4)CC3)c(F)c2)C(=O)O1` the listed MIC is 8

---

Test system: Enterococcus faecalis
Protocol details: Antibacterial activity against Enterococcus faecalis ATCC 14506 by broth microdilution method
Assay type: functional
Reported endpoint: MIC

Consider the reported MIC for these compounds:
1) CC(=O)NC[C@H]1CN(c2ccc(N3CCN(C(=O)CO)CC3)c(F)c2)C(=O)O1    2 mg/L
2) CC(=O)NC[C@H]1CN(c2ccc(N(C)C3CCN(C(=O)/C=C/c4ccc([N+](=O)[O-])cc4)CC3)c(F)c2)C(=O)O1    > 16 mg/L
3) CC(=O)NC[C@H]1CN(c2ccc(N(C)C3CCN(C(=O)/C=C/c4ccc(O)cc4)CC3)c(F)c2)C(=O)O1    > 16 mg/L

Now look at this one.
Record `CC(=O)NC[C@H]1CN(c2ccc(N(C)C3CCN(C(=O)/C=C/c4ccc(CO)o4)CC3)c(F)c2)C(=O)O1` . Reported MIC: > 16 mg/L

---

Tested on: Staphylococcus aureus
Protocol details: Antibacterial activity against Staphylococcus aureus ATCC 33592 by broth microdilution method
Type: functional
Here, each record is paired with measured MIC data.
Write the answer as a number in µg/mL, unit excluded.

1. CC(=O)NC[C@H]1CN(c2ccc(N(C)C3CCN(C(=O)/C=C/C4CCCCC4)CC3)c(F)c2)C(=O)O1    8
2. CC(=O)NC[C@H]1CN(c2ccc(N3CCN(Cc4ccc([N+](=O)[O-])o4)CC3)c(F)c2)C(=O)O1    1

The value of MIC measured for the compound `CC(=O)NC[C@H]1CN(c2ccc(N(C)C3CCN(C(=O)/C=C/c4ccc([N+](=O)[O-])o4)CC3)c(F)c2)C(=O)O1` turned out to be 1

---

Listed molecules paired with reported MIC
Test system: Staphylococcus aureus
Protocol details: Antibacterial activity against Staphylococcus aureus ATCC 25923 by broth microdilution method
Type: functional
Report the figure in µg/mL without appending any unit label.

1) CC(=O)NC[C@H]1CN(c2ccc(N3CCN(Cc4ccc([N+](=O)[O-])o4)CC3)c(F)c2)C(=O)O1    1
2) CC(=O)NC[C@H]1CN(c2ccc(N(C)C3CCN(C(=O)/C=C/c4ccc([N+](=O)[O-])o4)CC3)c(F)c2)C(=O)O1    2
3) CC(=O)NC[C@H]1CN(c2ccc(N(C)C3CCN(C(=O)/C=C/c4ccc(O)cc4)CC3)c(F)c2)C(=O)O1    8
4) CC(=O)NC[C@H]1CN(c2ccc(N(C)C3CCN(C(=O)/C=C/c4c[nH]c5ccccc45)CC3)c(F)c2)C(=O)O1    8
5) CC(=O)NC[C@H]1CN(c2ccc(N3CCN(C(=O)CO)CC3)c(F)c2)C(=O)O1    2

Record `CC(=O)NC[C@H]1CN(c2ccc(N(C)C3CCN(C(=O)/C=C/C4CCCCC4)CC3)c(F)c2)C(=O)O1` has Staphylococcus aureus MIC equal to 8

Observed MIC, Staphylococcus aureus, `CC(=O)NC[C@H]1CN(c2ccc(N(C)C3CCN(C(=O)/C=C/c4ccccc4)CC3)c(F)c2)C(=O)O1` : 8

The molecule `CC(=O)NC[C@H]1CN(c2ccc(N3CCOCC3)c(F)c2)C(=O)O1` , when measured on Staphylococcus aureus, yielded MIC of 1

---

Test system: Staphylococcus aureus
Protocol details: Antibacterial activity against Staphylococcus aureus ATCC 33592 by broth microdilution method
Format: functional
Some compounds, each annotated with its measured MIC.

Recorded results for 3 compounds are shown here.
1. CC(=O)NC[C@H]1CN(c2ccc(N(C)C3CCN(C(=O)/C=C/c4ccco4)CC3)c(F)c2)C(=O)O1    > 16 µg/mL
2. CC(=O)NC[C@H]1CN(c2ccc(N(C)C3CCN(C(=O)/C=C/c4ccccc4)CC3)c(F)c2)C(=O)O1    4 µg/mL
3. CC(=O)NC[C@H]1CN(c2ccc(N(C)C3CCN(C(=O)/C=C/c4ccc5c(c4)OCO5)CC3)c(F)c2)C(=O)O1    > 16 µg/mL

Now turn to the next compound.
Value of measured MIC for the entry `CC(=O)NC[C@H]1CN(c2ccc(N(C)C3CCN(C(=O)/C=C/c4ccc(CO)o4)CC3)c(F)c2)C(=O)O1` : > 16 µg/mL
